molecular target: Heat shock protein HSP 90-alpha (Homo sapiens); type: functional, organism-based
The source made the active and inactive calls.
Property: AC50

Please supply the value of reported AC50 for the item O=C(C=Cc1ccccn1)c1ccccc1O 2370 nM (active)

Determine from records and report AC50 for CCN1/C(=C/c2ccc3cc(C)cc(C)c3[n+]2CC)Sc2cc(C)ccc21 2860 nM (active)

In one line, give reported AC50 of the entry O=C(NNC1=C(C(=O)C(F)(F)F)CCC1)c1ccc(Cl)cc1 . 3370 nM (active)

Quote AC50 reported for CN1CCN(C(c2ccc(Cl)cc2)c2cc(Cl)c3cccnc3c2O)CC1 (stereo not given) please. 770 nM (active)

Determine its reported AC50: O=C(Nc1ccc(F)cc1)c1nc(S(=O)(=O)Cc2ccccc2)ncc1Cl 3460 nM (active)
